// data source = patent US20250027068

# system name: pooled human IgG (human IgG1, 2, 3 and 4)
proteins and their reported Enzyme Activity Endpoint Assay (purified): Fab′2
Give the value, in units of ng/µL, as a plain number.

Worked cases, answers included:
protein="PRT-449 (protein) MVTSVWTKGVTPPTDFRKIVDGNIAYYHAPYKAGQGWYDITKTFNGKDDLLCGAATAGNMLHWWFDQNKDQIEAYLKEHPEKQKINFNGEQMFDVKEAIDTKDDQTNSKLFEYFKEKAFPYLSTKHLGVFPDHVLDMFINGYRLSLTNHGPTPVKEGSKDPRGGIFDAVFTRGDQSKLLTSRHDFKEKTLKEISDLIKQELTEGKALALSHTYANVRINHVINLWGADFDSNGNLEAIYVTDSDSNASIGMKKYFVGVNSAGKVAISAKEIEDDNIGAQVLGLFTLSTGQDIWNQTNLEHHHHHH" endpoint_value=1100
protein="PRT-658 (protein) MQITSVWTKGVTPLTPEQFRYNNEDVIHAPYLAHQGWYDITKAFDGKDNLLCGAATAGNMLHWWFDQNKTEIEAYLSKHPEKQKIIFNNQELFDLRKAINTKDSQTNSALFNYFRDKAFPNLSARQLGVMPDLVLDMFINGYYLNVFKTQSTDVNRPYQDKDKRGGIFDAVFTRGDQTTLLTARHDLKNKGLNDISTIIKQELTEGRALALSHTYANVSISHVINLWGADFNAEGNLEAIYVTDSDANASIGMKKYFVGINAHGHVAISAKKIEGENIGAQVLGLFTLSSGKDIWQKLSLEHHHHHH" endpoint_value=822
protein="PRT-399 (protein) MVTSVWTKGVTPPADFTQGEDVFHAPYVANQGWYDITKTFNGKDDLLCGAATAGNMLHWWFDQNKEYIEAYLKKHPEKQKIMFGDQELLDVRKAINTKGSQKNSELFNYFRDKAFPNLSARRLGVMPDLVLDMFINGYYLNVTKTQTTDVNRTYQEKDKRGGIFDAVFTRGDQSKLLTSRHDFKEKGLKEISDLIKQELTEGKALGLSHTYANVRINHVINLWGADFDSDGNLKAIYVTDSDSNASIGMKKYVVGVNSAGKVAISAKEIKEDNIGAQVLGLFTLSTGQDIWNQTN" endpoint_value=0

// switching to the query protein
Query block: # Enzyme Activity Endpoint Assay (purified): Fab′2 lookup, item PRT-611 (protein) MQITSVWTKGVTPLTPEQFRYNNEDVIHAPYLAHQGWYDITKAFDGKDNLLCGAATAGNMLHWWFDQNKTEIEAYLSKHPEKQKIIFNNQELFDLKAAIDTKDSQTNSQLFNYFRDKAFPNLSARQLGVMPDLVLDMFINGYYLNVFKTQSTDVNRPYQDKDKRGGIFDAVFTRGDQTTLLTARYDLYNKGLNDISTIIKQELTEGRALALSHTYANVSISHVINLWGADFNAEGNLEAIYVTDSDANASIGMKKYFVGINAHGHVAISAKKIEGENIGAQVLGLFTLSSGKDIWQKLSLEHHHHHH
Result block: 924
